Origin of values: patent US20060269997A1

Biological target: T1, KDR (1-3) monomer (UniProt P35968 20-327, limits assumed, biotin-labeled in the ELISA of Example 8)
T1 construct: domain: domains 1 to 3; Genentech reagent; also called domains 1 to 3 of KDR
T1 sequence (P35968 20-327 limits assumed): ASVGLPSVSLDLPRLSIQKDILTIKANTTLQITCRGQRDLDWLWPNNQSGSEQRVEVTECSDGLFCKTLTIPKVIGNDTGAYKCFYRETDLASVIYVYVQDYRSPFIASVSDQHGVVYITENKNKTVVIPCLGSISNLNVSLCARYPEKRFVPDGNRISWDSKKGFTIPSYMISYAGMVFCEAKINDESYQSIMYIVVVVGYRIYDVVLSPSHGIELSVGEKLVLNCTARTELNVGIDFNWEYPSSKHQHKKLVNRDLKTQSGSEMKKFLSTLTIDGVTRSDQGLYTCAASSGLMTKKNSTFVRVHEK
Test: competition ELISA vs biotinylated VEGF (8-109), soluble KDR (1-3) captured by MAKD5
Reported values of Relative Binding Affinity (ratio to native VEGF (8-109)) for individual entries
All answers are understood in fold, so give the number only.

LK-VRB-26s (ligand, human, UniProt P15692-4 27-135, looked up) APMAEGGGQNHHEVVKFEDVLRRSSCHPIETLVDIFQEYPDEIEYIFKPSCVPLMRCGGCCNDEMRECVPTEESNITMQIMRIKPHQGQHIGEMSFLQHNKCECRPKKD : 23

INPUT: Identify the reported Relative Binding Affinity (ratio to native VEGF (8-109)) for the following entry. LK-VRB-14s (ligand, human, UniProt P15692-4 27-135, looked up) APMAEGGGQNHHEVVKFMDVLRRSYCHPIETLVDIFQEYPDEIEYIFKPSCVPLMRCGGCCNSEMRECVPTEESNITMQIMRIKPHQGQHIGEMSFLQHNKCECRPKKD
OUTPUT: 0.5

INPUT: Identify the reported Relative Binding Affinity (ratio to native VEGF (8-109)) for the following entry. LK-VRB-10s (ligand, human, UniProt P15692-4 27-135, looked up) APMAEGGGQNHHEVVKFMDVYQRSSCHPIETLVDIFQEYPDEIEYIFKPSCVPLMRCGGCCNSEMRECVPTEESNITMQIMRIKPHQGQHIGEMSFLQHNKCECRPKKD
OUTPUT: 0.5

INPUT: Identify the reported Relative Binding Affinity (ratio to native VEGF (8-109)) for the following entry. LK-VRB-20s (ligand, human, UniProt P15692-4 27-135, looked up) APMAEGGGQNHHEVVKFMDVLRRSSCHPIETLVDIFQEYPDEIEYIFKPSCVPLMRCGGCCNSEMRECVPTEESNITMQIMRIKPHQGQHIGEMSFLQHNKCECRPKKD
OUTPUT: 2
